- Test system: Plasmodium falciparum
- METHOD: Antimicrobial activity against Plasmodium falciparum IMT 10336 harboring Pfcrt, Pfmdr1, Pfmrp, and Pfnhe-1 polymorphisms assessed as growth inhibition after 48 hrs by scintillation counting
- Assay type: functional, organism-based
- CONDITION NOTES: IMT 10336, 48 h
PROPERTY MEASURED: IC50
Please answer in the form of a number followed by its unit of measurement.

# IC50 (molecule: "C=C[C@H]1CN2CC[C@H]1C[C@H]2[C@H](O)c1ccnc2ccc(OC)cc12" ) is 271 nM

====

- System: Plasmodium falciparum
- METHOD: Antimicrobial activity against Plasmodium falciparum IMT 16332 harboring Pfcrt, Pfmdr1, Pfmrp, and Pfnhe-1 polymorphisms assessed as growth inhibition after 48 hrs by scintillation counting
- Type: functional, organism-based
- CONDITION NOTES: IMT 16332, 48 h
PROPERTY MEASURED: IC50 (µM)
Form entry: value (µM) — number only.

Per the records, this compound ( "C=C[C@H]1CN2CC[C@H]1C[C@H]2[C@H](O)c1ccnc2ccc(OC)cc12" ) has IC50 equal to 0.083
